Study Target: T1, N(A2B2)A-avi-His (biotinylated at the avi tag)
T1 construct: also called biotinylated N(A2B2)A-avi-His
T1 chain: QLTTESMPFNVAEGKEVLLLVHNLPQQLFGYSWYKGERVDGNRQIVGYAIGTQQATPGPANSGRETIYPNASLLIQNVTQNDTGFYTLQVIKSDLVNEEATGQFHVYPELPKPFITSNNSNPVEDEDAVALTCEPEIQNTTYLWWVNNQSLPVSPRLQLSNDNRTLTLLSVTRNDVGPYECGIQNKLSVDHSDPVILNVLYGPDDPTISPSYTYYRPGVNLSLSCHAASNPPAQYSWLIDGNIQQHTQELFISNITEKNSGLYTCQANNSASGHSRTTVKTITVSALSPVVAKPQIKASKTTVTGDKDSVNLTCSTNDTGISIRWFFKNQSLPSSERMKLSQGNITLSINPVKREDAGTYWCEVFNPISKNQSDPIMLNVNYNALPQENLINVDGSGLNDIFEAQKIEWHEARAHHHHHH
Assay Overview: SPR, ProteOn, antigen on NLC chip, purified Fab as analyte
Reported values of kon for individual entries

Binder	kon
P006.038 Fab (Fab, V domains shown, Fab from E. coli) VH: EVQLLESGGGLVQPGGSLRLSCAASGFTFTDYYMNWVRQAPGKGLEWLGFIGNKANAYTTEYSASVKGRFTISRDKSKNTLYLQMNSLRAEDTATYYCTRDRGIRFGFDYWGQGTTVTVSS VL: EIVLTQSPATLSLSPGERATLSCRASSSVTYIHWYQQKPGQAPRSWIYATSNLASGIPARFSGSGSGTDFTLTISSLEPEDFAVYYCQHWSSVPPTFGQGTKLEIK	225000 M⁻¹ s⁻¹
P005.103 Fab (Fab, V domains shown, Fab from E. coli) VH: EVQLLESGGGLVQPGGSLRLSCAASGFTFTDYYMNWVRQAPGKGLEWLGFIGNKANAYTTEYSASVKGRFTISRDKSKNTLYLQMNSLRAEDTATYYCTRDRGIRFYFDYWGQGTTVTVSS VL: EIVLTQSPATLSLSPGERATLSCRASSSVTYIHWYQQKPGQAPRSWIYATSNLASGIPARFSGSGSGTDFTLTISSLEPEDFAVYYCQHWSSISPTFGQGTKLEIK	100000 M⁻¹ s⁻¹
A5H1EL1D Fab (phage display format, parental clone) (Fab, V domains shown, Fab from E. coli (bacterial supernatant or IMAC-purified), Flag tag) VH: EVQLLESGGGLVQPGGSLRLSCAASGFTFTDYYMNWVRQAPGKGLEWLGFIGNKANAYTTEYSASVKGRFTISRDKSKNTLYLQMNSLRAEDTATYYCTRDRGLRFYFDYWGQGTTVTVSS VL: EIVLTQSPATLSLSPGERATLSCRASSSVTYIHWYQQKPGQAPRSWIYATSNLASGIPARFSGSGSGTDFTLTISSLEPEDFAVYYCQHWSSKPPTFGQGTKLEIK	108000 M⁻¹ s⁻¹
P001.177 Fab (Fab, V domains shown, Fab from E. coli) VH: EVQLLESGGGLVQPGGSLRLSCAASGFYFTDYYMNWVRQAPGKGLEWLGFISNKANAYTTEYSASVKGRFTISRDKSKNTLYLQMNSLRAEDTATYYCTRDRGLRFYFDYWGQGTTVTVSS VL: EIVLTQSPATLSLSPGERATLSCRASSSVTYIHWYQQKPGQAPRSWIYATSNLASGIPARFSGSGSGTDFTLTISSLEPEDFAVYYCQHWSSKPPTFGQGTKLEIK	267000 M⁻¹ s⁻¹
P002.139 Fab (Fab, V domains shown, Fab from E. coli) VH: EVQLLESGGGLVQPGGSLRLSCAASGFYFTDYAMNWVRQAPGKGLEWLGVISNKANAYTTEYSASVKGRFTISRDKSKNTLYLQMNSLRAEDTATYYCTRDRGLRFYFDYWGQGTTVTVSS VL: EIVLTQSPATLSLSPGERATLSCHASSSVTYIHWYQQKPGQAPRSWIYATSNLASGIPARFSGSGSGTDFTLTISSLEPEDFAVYYCQHWSSKPPTFGQGTKLEIK	105000 M⁻¹ s⁻¹
P005.102 Fab (Fab, V domains shown, Fab from E. coli) VH: EVQLLESGGGLVQPGGSLRLSCAASGFTFTDYYMNWVRQAPGKGLEWLGFIGNKANAYTTEYSASVKGRFTISRDKSKNTLYLQMNSLRAEDTATYYCTRDRGIRFQFDYWGQGTTVTVSS VL: EIVLTQSPATLSLSPGERATLSCRASSSVTYIHWYQQKPGQAPRSWIYATSNLASGIPARFSGSGSGTDFTLTISSLEPEDFAVYYCQHWSSKSPTFGQGTKLEIK	134000 M⁻¹ s⁻¹
P005.097 Fab (Fab, V domains shown, Fab from E. coli) VH: EVQLLESGGGLVQPGGSLRLSCAASGFTFTDYYMNWVRQAPGKGLEWLGFIGNKANAYTTEYSASVKGRFTISRDKSKNTLYLQMNSLRAEDTATYYCTRDRGLRFSFDYWGQGTTVTVSS VL: EIVLTQSPATLSLSPGERATLSCRASSSVTYIHWYQQKPGQAPRSWIYATSNLASGIPARFSGSGSGTDFTLTISSLEPEDFAVYYCQHWSSQPPTFGQGTKLEIK	94000 M⁻¹ s⁻¹

This collection of values is drawn from patent US20230416365A1.
